Measured Activity by item
# Tested on: Avian myeloblastosis virus
# measurement_protocol: Inhibition of AMV reverse transcriptase activity assessed as incorporation of dGMP in poly(rC)-oligo(dG) at 100 uM
# Design: scale not given: the % may be the effect or the level left
Lab book: enter the figure in %, no units written.

Solved entries:
- test_smiles: "O=C1O[C@@H]2[C@@H](OC(=O)c3cc(O)c(O)c(O)c3-c3c1cc(O)c(O)c3O)[C@H](O)O[C@@H]1COC(=O)c3cc(O)c(O)c(O)c3-c3c(O)c(O)c4oc(=O)c5c(c(O)c(O)c6oc(=O)c3c4c65)-c3c(cc(O)c(O)c3O)C(=O)O[C@@H]21"
  recorded_value: 9
- test_smiles: "O=C(O)C[C@H]1C(=O)O[C@H]2[C@H](OC(=O)c3cc(O)c(O)c(O)c3)[C@@H](OC(=O)c3cc(O)c(O)c4c3[C@H]1[C@H](O)C(=O)O4)[C@H](OC(=O)c1cc(O)c(O)c(O)c1)O[C@@H]2COC(=O)c1cc(O)c(O)c(O)c1"
  recorded_value: 27
- test_smiles: "O=C(O)c1cc(O)c(O)c(O)c1"
  recorded_value: 91

Input line: Return value of Activity for input O=C(OC[C@H]1O[C@@H](OC(=O)c2cc(O)c(O)c(O)c2)[C@H](OC(=O)c2cc(O)c(O)c(O)c2)[C@@H](OC(=O)c2cc(O)c(O)c(O)c2)[C@@H]1OC(=O)c1cc(O)c(O)c(O)c1)c1cc(O)c(O)c(O)c1 , no commentary.
Output line: 27

Values from ChEMBL document CHEMBL1151661
